The reported numbers originate from patent US12421249B2.

target: APOL1 (Homo sapiens, UniProt O14791); experiment: Multi-Tox Assay (MultiTox-Fluor Multiplex Cytotoxicity Assay in tet-inducible APOL1 T-REx-HEK293 cells; Table 46 does not say which APOL1 variant G0/G1/G2); format: cell-based; settings: APOL1 variant not given
Sequence (O14791 whole entry S342G/I384M, form open): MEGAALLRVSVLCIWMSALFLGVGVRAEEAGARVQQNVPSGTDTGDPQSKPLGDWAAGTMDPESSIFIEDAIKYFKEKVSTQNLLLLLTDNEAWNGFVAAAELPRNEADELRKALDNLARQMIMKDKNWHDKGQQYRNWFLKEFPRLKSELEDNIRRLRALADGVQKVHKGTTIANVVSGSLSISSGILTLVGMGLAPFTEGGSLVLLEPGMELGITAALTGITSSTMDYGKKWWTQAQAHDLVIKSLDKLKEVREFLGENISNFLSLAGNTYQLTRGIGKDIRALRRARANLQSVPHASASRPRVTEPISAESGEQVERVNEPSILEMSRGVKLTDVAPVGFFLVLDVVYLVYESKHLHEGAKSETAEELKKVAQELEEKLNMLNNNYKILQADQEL
The entries below come with measured IC90 values attached.

# annotated cases, reported IC90 shown
CC1CC2(CC(c3ccc4c(c3)oc(=O)n4C)N1)OCCc1cc(Cl)sc12 (stereo not shown) [Compound 23]: < 50 nM
C[C@H]1C[C@@]2(C[C@@H](c3ccc4oc(=O)n(C)c4c3)N1)OCCc1cc(Cl)sc12 (racemic) [Compound 28]: < 50 nM
C[C@H]1C[C@@]2(C[C@@H](c3cn(C[C@H](O)CO)nn3)N1)OC[C@@H](O)c1cc(Cl)sc12 [Compound 300]: 50 to 500 nM
C[C@H]1C[C@@]2(C[C@@H](c3cc(-c4ccccn4)n[nH]3)N1)OCCc1cc(Cl)sc12 (racemic) [Compound 88]: < 50 nM

// recorded IC90 for C[C@H]1CC2(CC(c3cnn(C)c3)N1)OCC(O)c1cc(Cl)sc12 (single isomer, unassigned) [Compound 176] : < 50 nM

// recorded IC90 for C[C@H]1C[C@@]2(C[C@@H](c3ccc4c(c3)n(C)c(=O)n4C)N1)OCCc1cc(Cl)sc12 (racemic) [Compound 32] : < 50 nM

// recorded IC90 for CC(C)C1CC2(CC(c3cn(C)nn3)N1)OCCc1cc(Cl)sc12 (stereo not shown) [Compound 188] : 50 to 500 nM

---

target: APOL1 G1 (Homo sapiens, UniProt O14791, I384M/S342G); assay: Trypanosoma brucei brucei Lysis Assay Using APOL1 Recombinant Protein (AlamarBlue viability readout); type: cell-based; conditions: Trypanosome Assay; read-out: Trypanosome Assay Max Activity (%)
The entries below come with measured Emax values attached.
Enter your answer as a number in %; do not include the unit.

# annotated cases, reported Emax shown
COc1cccc(C2CC3(CC(C)N2)OCCc2cc(Cl)sc23)n1 (mixture of isomers) [Compound 135]: 94
COCCOCCOc1ccc([C@@H]2C[C@]3(C[C@H](C)N2)OCCc2cc(Cl)sc23)cc1 (racemic) [Compound 36]: 118
C[C@H]1C[C@@]2(C[C@@H](c3c[nH]c(C4CC4)n3)N1)OCCc1cc(Cl)sc12 (racemic) [Compound 130]: 102
Cc1c([C@@H]2C[C@]3(C[C@H](C)N2)OCCc2cc(Cl)sc23)cnn1C (racemic) [Compound 136]: 100
Cc1cc(O)ncc1[C@@H]1C[C@]2(C[C@H](C)N1)OCCc1cc(Cl)sc12 (racemic) [Compound 125]: 103

// recorded Emax for Cc1cc([C@@H]2C[C@]3(C[C@H](C)N2)OCCc2cc(Cl)sc23)[nH]n1 (racemic) [Compound 73] : 110

// recorded Emax for C[C@@H]1CC2(C[C@H](C)N1)OCCc1sc(C(F)(F)F)cc12 (single isomer, unassigned) [Compound 196] : 111

---

target: APOL1 (Homo sapiens); experiment: Multi-Tox Assay (MultiTox-Fluor Multiplex Cytotoxicity Assay in tet-inducible APOL1 T-REx-HEK293 cells; Table 46 does not say which APOL1 variant G0/G1/G2); details: IP50 = IC50 for cell proliferation, APOL1 variant not given
The entries below come with measured IC50 values attached.

# annotated cases, reported IC50 shown
CC(C)C1CC2(CC(c3cn(C)nn3)N1)OCCc1cc(C(F)(F)F)sc12 (centres unmarked): 0.05 to 0.5 µM
CC1CC2(CC(C3CC3)N1)OCCc1cc(Cl)sc12 (mixture of isomers) [Compound 211]: < 0.05 µM
Cc1coc([C@@H]2C[C@]3(C[C@H](C)N2)OCCc2cc(Cl)sc23)n1 (racemic): 0.05 to 0.5 µM
Cc1cc(C)nc(CCn2cc([C@@H]3C[C@]4(C[C@H](C)N3)OCC(F)(F)c3cc(Cl)sc34)nn2)c1: < 0.05 µM
C[C@H]1C[C@@]2(C[C@@H](c3cn(CCc4ccncn4)nn3)N1)OC[C@@H](O)c1cc(Cl)sc12: 0.05 to 0.5 µM
C[C@H]1C[C@@]2(C[C@@H](c3cn(Cc4ccccn4)nn3)N1)OC[C@@H](O)c1cc(Cl)sc12: 0.05 to 0.5 µM

// recorded IC50 for Cc1nc([C@@H]2C[C@]3(C[C@H](C)N2)OCCc2cc(Cl)sc23)oc1C (racemic) : 0.05 to 0.5 µM

// recorded IC50 for Cc1nnc(Cn2cc([C@@H]3C[C@]4(C[C@H](C)N3)OC[C@@H](O)c3cc(Cl)sc34)nn2)[nH]1 : 0.05 to 0.5 µM

// recorded IC50 for COC(=O)[C@@H]1C[C@]2(C[C@H](C)N1)OCCc1cc(Cl)sc12 : > 0.5 µM

// recorded IC50 for CC(C)c1c[nH]c([C@@H]2C[C@]3(C[C@H](C)N2)OCCc2cc(Cl)sc23)n1 (racemic) : > 0.5 µM

// recorded IC50 for C[C@H]1C[C@@]2(C[C@@H](c3ncnn3C)N1)OCCc1cc(Cl)sc12 (racemic) : > 0.5 µM
